Quick list: cell viability per entry.
- System: MOLM14
- Protocol Summary: cell viability relative to vehicle control; higher = less cytotoxic;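 also: after 48 h exposure read by CellTiter-Glo luminescence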
- Setup Conditions: 10 µM; SRSF2 genotype: SRSF2 P95H/wt
Where a name gives a salt, the structure may show the parent alone.
Enter your answer as a number in %; do not include the unit.

Ask: # input compound: `COc1ccc(-c2cc(=O)c3c(O)cc(O)cc3o2)cc1` ; wanted: its cell viability
Reply: 107

Ask: # input compound: CC1(C)CCCC2(C)OC(=O)C=C12 (stereo not given) [Dihydroactinidiolide] ; wanted: its cell viability
Reply: 93.8

Ask: # input compound: Cc1c(C(C)C)c(=O)n(-c2ccccc2)n1C [Propyphenazone (4-Isopropylantipyrine)] ; wanted: its cell viability
Reply: 94.3

Ask: # input compound: `COc1cc(OC)c(NC(=O)Nc2cc(C)on2)cc1Cl` ; wanted: its cell viability
Reply: 61.3

Ask: # input compound: `OCCn1cc(-c2cnc3nnn(Cc4ccc5ncccc5c4)c3n2)cn1` ; wanted: its cell viability
Reply: 99.4

New cases:
Ask: # input compound: CC(C)=C[C@H]1C[C@](C)(O)[C@@H]2[C@H]3CC[C@@H]4[C@@]5(C)CC[C@H](O[C@@H]6OC[C@H](O)[C@H](O[C@@H]7O[C@H](CO)[C@@H](O)[C@H](O)[C@H]7O[C@@H]7OC[C@@H](O)[C@H](O)[C@H]7O)[C@H]6O[C@@H]6O[C@@H](C)[C@H](O)[C@@H](O)[C@H]6O)C(C)(C)[C@@H]5CC[C@@]4(C)[C@@]34CO[C@@]2(C4)O1 [Jujuboside B] ; wanted: its cell viability
Reply: 107

Ask: # input compound: `O=C(NC[C@H]1CN(c2ccc(N3CCOCC3=O)cc2)C(=O)O1)c1ccc(Cl)s1` ; wanted: its cell viability
Reply: 96.8

Ask: # input compound: CC(=O)/N=c1/sc(S(N)(=O)=O)nn1C [Methazolamide] ; wanted: its cell viability
Reply: 98.5

Ask: # input compound: `CC1(C)CC[C@]2(C(=O)O[C@@H]3O[C@H](CO[C@@H]4O[C@H](CO)[C@@H](O)[C@H](O)[C@H]4O)[C@@H](O)[C@H](O)[C@H]3O)CC[C@]3(C)C(=CC[C@@H]4[C@@]5(C)CC[C@H](O[C@@H]6OC[C@H](O)[C@H](O)[C@H]6O)[C@@](C)(CO)[C@@H]5CC[C@]43C)[C@@H]2C1` ; wanted: its cell viability
Reply: 103

Ask: # input compound: CO/N=C(\C(=O)N[C@@H]1C(=O)N2C(C(=O)O)=C(CSc3nnnn3C)CS[C@H]12)c1csc(N)n1 [Cefmenoxime hydrochloride] ; wanted: its cell viability
Reply: 99.7

Ask: # input compound: `Cn1cc(-c2ccc3nnc(C(F)(F)c4ccc5ncccc5c4)n3n2)cn1` ; wanted: its cell viability
Reply: 96

Ask: # input compound: CC(C)C(=O)Nc1ccc([N+](=O)[O-])c(C(F)(F)F)c1 [Flutamide (Eulexin)] ; wanted: its cell viability
Reply: 96.8

* * *

- Test system: OCI-AML2
- Protocol Summary: cell viability relative to vehicle control; higher = less cytotoxic
- Setup Conditions: 10 µM; SRSF2 genotype: wt/wt
Quick list: cell viability per entry.
Enter your answer as a number in %; do not include the unit.

Ask: # input compound: CCCCNC(=O)NS(=O)(=O)c1ccc(C)cc1 [Tolbutamide] ; wanted: its cell viability
Reply: 110

Ask: # input compound: O=C(O)CC(O)C(=O)O (centres undefined) ; wanted: its cell viability
Reply: 104

Ask: # input compound: `C[C@@H]1COCCN1c1cc(-c2ccnn2C)c2ccnc(-c3ccn[nH]3)c2n1` ; wanted: its cell viability
Reply: 17.1

Ask: # input compound: `O=S(=O)(c1ccccc1)N(CC(F)(F)F)c1ccc(C(O)(C(F)(F)F)C(F)(F)F)cc1` ; wanted: its cell viability
Reply: 70.7

Ask: # input compound: `COc1ccc(CNCc2cccc3ccccc23)cc1` ; wanted: its cell viability
Reply: 101

Continue with the next compound.
Ask: # input compound: OCC1OC(OC2OC(CO)C(O)C(O)C2O)C(O)C(O)C1O [D-(+)-Trehalose Anhydrous] ; wanted: its cell viability
Reply: 102

* * *

- Tested on: OCI-AML2
- Protocol Summary: cell viability relative to vehicle control; higher = less cytotoxic
- Setup Conditions: 10 µM; SRSF2 genotype: wt/wt
Counter-ions that a name gives are not always drawn.
Measured Quantity: cell viability

Ask: # input compound: CO[C@H]1/C=C/O[C@@]2(C)Oc3c(C)c(O)c4c(O)c(cc(O)c4c3C2=O)NC(=O)/C(C)=C\C=C\[C@H](C)[C@H](O)[C@@H](C)[C@@H](O)[C@@H](C)[C@H](OC(C)=O)[C@@H]1C [Rifamycin sodium salt] ; wanted: its cell viability
Reply: 0.42%

Continue with the next compound.
Ask: # input compound: CC12CCC(CC1=O)C2(C)C (stereo not given) ; wanted: its cell viability
Reply: 99.1%

* * *

- Test system: OCI-AML2
- Protocol Summary: cell viability relative to vehicle control; higher = less cytotoxic
- Setup Conditions: 10 µM; SRSF2 genotype: wt/wt
# t = cell viability below 90% (exclusive); f = cell viability at/above 90%

Ask: For `Nc1nc(-c2nn(Cc3ccccc3F)c3ncccc23)ncc1C1CC1` , is the recorded cell viability below the cut-off of 90%?
Reply: t

Ask: For `C[C@@H]1CC[C@H]2C(C)(C)[C@H]3C[C@@]12CC[C@@]3(C)O` , is the recorded cell viability below the cut-off of 90%?
Reply: f

Ask: For `COc1cccc2cc(-c3nc([C@H]4CC[C@H](C(=O)O)CC4)n4ncnc(N)c34)[nH]c12` , is the recorded cell viability below the cut-off of 90%?
Reply: t

Ask: For O=C(O)C1=C(CSc2nnnn2CS(=O)(=O)O)CS[C@@H]2[C@H](NC(=O)[C@H](O)c3ccccc3)C(=O)N12 [Cefonicid sodium] , is the recorded cell viability below the cut-off of 90%?
Reply: f

Consider the additional molecule presented here.
Ask: For COc1cc(Nc2ncc(F)c(Nc3ccc4c(n3)NC(=O)C(C)(C)O4)n2)cc(OC)c1OC [R406(free base)] , is the recorded cell viability below the cut-off of 90%?
Reply: t

* * *

- System: OCI-AML2
- Protocol Summary: cell viability relative to vehicle control; higher = less cytotoxic
- Setup Conditions: 10 µM; SRSF2 genotype: wt/wt
Measured Quantity: cell viability (%)
Enter your answer as a number in %; do not include the unit.

Ask: # input compound: O=C1CCC(N2C(=O)c3ccccc3C2=O)C(=O)N1 (stereo unspecified) [Thalidomide] ; wanted: its cell viability
Reply: 91.4

Ask: # input compound: CC(=O)O[C@]1(C(C)=O)CC[C@H]2[C@@H]3C[C@H](C)C4=CC(=O)C=C[C@]4(C)[C@@]3(F)[C@@H](O)C[C@@]21C [Fluorometholone Acetate] ; wanted: its cell viability
Reply: 113

Ask: # input compound: `O=C(c1cccc(Cl)c1F)N1CCN(Cc2cccc(Nc3nccs3)n2)CC1` ; wanted: its cell viability
Reply: 44.1

Ask: # input compound: `O=[N+]([O-])c1ccc(Sc2cccc[n+]2[O-])c2nonc12` ; wanted: its cell viability
Reply: 0.27

New cases:
Ask: # input compound: c1ccc(Cn2c(-c3ccc(OCC(C4CCNCC4)n4c(-c5ccccc5)nc5ccccc54)cc3)nc3ccccc32)cc1 (stereo unspecified) ; wanted: its cell viability
Reply: 0.3

Ask: # input compound: `Cc1ccc(O)c(O)c1` ; wanted: its cell viability
Reply: 90.9

Ask: # input compound: Cc1cc(C(=O)Nc2nc3cccc(Cl)c3n2[C@@H]2CCCCN(C(=O)/C=C/CN(C)C)C2)ccn1 [Nazartinib (EGF816, NVS-816)] ; wanted: its cell viability
Reply: 56.7

Ask: # input compound: `C[N+](C)(C)C[C@H](O)CC(=O)[O-]` ; wanted: its cell viability
Reply: 110

Ask: # input compound: `O=C(/C=C/c1ccc(CN(CCO)CCc2c[nH]c3ccccc23)cc1)NO` ; wanted: its cell viability
Reply: 2.36

Ask: # input compound: COC(=O)CC1CC(c2ccc(O)cc2)=NO1 (stereo unspecified) ; wanted: its cell viability
Reply: 103

Ask: # input compound: `COc1cc(C=O)cc(OC)c1O` ; wanted: its cell viability
Reply: 114

Ask: # input compound: `O=c1c(N=Nc2nccs2)c(-c2ccccc2)[nH]n1-c1nc(-c2ccccc2)cs1` ; wanted: its cell viability
Reply: 105

* * *

- Tested on: MOLM14
- Protocol Summary: cell viability relative to vehicle control; higher = less cytotoxic
- Setup Conditions: 10 µM; SRSF2 genotype: SRSF2 wt/wt
Counter-ions that a name gives are not always drawn.
Quick list: cell viability per entry.
Enter your answer as a number in %; do not include the unit.

Ask: # input compound: NC(=O)c1ccc(OCCCN2CC3CCCC3C2)cc1 (centres undefined) ; wanted: its cell viability
Reply: 101

Ask: # input compound: CN(C)c1cc(NC(=O)CNC(C)(C)C)c(O)c2c1CC1CC3C(N(C)C)C(=O)C(C(N)=O)=C(O)C3(O)C(=O)C1=C2O (centres undefined) [Tigecycline] ; wanted: its cell viability
Reply: 96.9

Ask: # input compound: CN(Cc1cc(Br)cc(Br)c1N)C1CCCCC1 [Bromhexine HCl] ; wanted: its cell viability
Reply: 99.4

Ask: # input compound: OC[C@H]1O[C@@H](Oc2ccc(O)cc2)[C@H](O)[C@@H](O)[C@@H]1O [Arbutin (Uva, p-Arbutin)] ; wanted: its cell viability
Reply: 101

Ask: # input compound: `C[C@H]1CNC(=O)c2cnn3ccc(nc23)N[C@H](C)c2cc(F)ccc2O1` ; wanted: its cell viability
Reply: 5.47

New cases:
Ask: # input compound: CC(=O)c1ccc(O)cc1O [2,4-Dihydroxyacetophenone] ; wanted: its cell viability
Reply: 94.1

Ask: # input compound: CCCCCCCC/C=C\CCCCCCCCCCCC(=O)O [Erucic acid] ; wanted: its cell viability
Reply: 107

Ask: # input compound: Nc1nc2c(ncn2[C@@H]2O[C@H](CO)[C@@H](O)[C@H]2O)c(=O)[nH]1 [Guanosine] ; wanted: its cell viability
Reply: 99.8

Ask: # input compound: `O=C(Nc1cc(C(F)(F)F)cc(C(F)(F)F)c1)c1cc(Cl)ccc1O` ; wanted: its cell viability
Reply: 8.64
